Tested on: Daboia russelii
protocolText: Protective activity against Daboia russellii venom-induced mortality in Swiss albino mouse at 100 mmol, iv by measuring venom LD50 administered immediately after venom injection measured after 24 hrs (reference value: 2.28ug)
Assay type: functional
Activity calls are given as the source filed them. The calls are words filed in the database; no cut-off is given here.
metricName: LD50

Oc1ccc(O)cc1 [HYDROQUINONE] ... inactive
COc1ccccc1 ... inactive
O=[N+]([O-])c1ccc2c(c1)OCO2 ... inactive
CCCOc1ccc(C=O)c(O)c1 ... inactive
Oc1ccccc1 ... inactive
COc1cccc(OC)c1 ... inactive
Oc1ccccc1O ... inactive
CCOc1ccc(C=O)c(O)c1 ... inactive

Query: Item `O=Cc1ccccc1` with Daboia russelii - LD50?
Reply: inactive

Query: What do we get for `CCCCCCCOc1ccc(C=O)c(O)c1` ?
Reply: inactive

---

Each record here notes measured logP.
protocolText: Lipophilicity, log P of compound
Assay type: physicochemical
condition: octanol/water; read-out: logP
No unit in the answer, only the number.

The cases that follow already have their logP on record.
COc1cc(C=O)ccc1O ... 1.87
COc1ccc(C=O)c(O)c1 ... 3.19
COc1ccc(C(=O)O)c(O)c1 ... 1.21
COc1cccc(C=O)c1 ... 1.15
O=Cc1ccc(O)cc1O ... 1.19
O=Cc1cc(O)ccc1O ... 1.53

Query: Look at this compound and give its reported logP. Oc1ccc(O)cc1 [HYDROQUINONE]
Reply: 1.48

Query: Queued: `COc1ccc(C=O)c(OC)c1`
Reply: 0.97

Query: Continue with `Oc1ccccc1`
Reply: 1.76

Query: Okay, and `Oc1cccc(O)c1` ?
Reply: 1.48

Query: Moving on to `O=Cc1cccc(O)c1O`
Reply: 1.19

Query: Check `COc1ccc(O)c(C=O)c1` too.
Reply: 1.93

Query: Same again, this time with `CC(=O)Oc1ccc(C=O)c(O)c1`
Reply: 0.94

---

Overview of recorded fold change (FC) for various compounds
protocolText: Protective activity against Naja kaouthia venom-induced mortality in Swiss albino mouse at 100 mmol, iv preincubated with venom for 1 hr followed by administration to mouse measured after 24 hrs relative to untreated control
Format: functional
Please give the numeric answer without any surrounding text.

COc1cccc(C=O)c1O ... 3.2

Query: Can you share its fold change (FC)? I mean this compound: `CCCCCCCOc1ccc(C=O)c(O)c1`
Reply: 1

Query: How about this compound: `O=Cc1cccc(O)c1O`
Reply: 1

Query: Consider next the compound `COc1cc(C=O)ccc1O` in the same way.
Reply: 3.2

Query: Likewise for `O=Cc1ccc(O)c(O)c1` ?
Reply: 1

---

This listing pairs compounds with measured fold change (FC).
protocolText: Protective activity against Naja kaouthia venom-induced mortality in Swiss albino mouse at 100 mmol, iv preincubated with venom for 1 hr followed by administration to mouse measured after 24 hrs relative to untreated control
Type: functional
Response field accepts a number only; no unit should be typed.

COc1cccc(C=O)c1 ... 3.2
COc1ccccc1C=O [2-METHOXYBENZALDEHYDE] ... 2.1
CCOc1cc(C=O)ccc1O [ETHYL VANILLIN] ... 1

Consider the record given below.
Query: Consider the compound shown here: `COc1ccc(CO)c(O)c1` What is its recorded fold change (FC)?
Reply: 3.2

---

Each entry below carries its recorded Activity.
protocolText: Protective activity against Daboia russellii venom-induced defibrinogenation in iv dosed Swiss albino mouse assessed as venom level causing blood coagulation at 100 mmol administered immediately after venom injection (reference value: 2.5 ug)
Type: functional, Daboia russelii
Please give a number only; it is taken to be in µg.

O=Cc1ccc(O)cc1O ... 2.5
C=CCOc1ccc(C=O)c(O)c1 ... 3.5
COc1cccc(C=O)c1O ... 3.5
OCc1cccc(O)c1O ... 2.5
COc1ccc(C=O)c(O)c1 ... 3.5

Query: Look up Activity for this molecule: `COc1cccc(CO)c1O`
Reply: 3.5

Query: Next molecule: `COc1ccc(CO)c(O)c1`
Reply: 3.5

Query: What about `CCCCOc1ccc(C=O)c(O)c1` ?
Reply: 3.5
